Experiment: Oral bioavailability in rat at 5 mg/kg by LC-MS/MS analysis
Format: ADME, organism-based
Conditions: in vivo
Note to self: values exactly at 8% are t. So bioavailability at or above 8% is t, below is f.

CNC(=O)c1c(-c2ccc(F)cc2)oc2cc(N(C3CCc4c(B(O)O)cccc43)S(C)(=O)=O)c(C3CC3)cc12 (stereo unspecified): f
CNC(=O)c1c(-c2ccc(F)cc2)oc2cc(-n3nccc3-c3ccc(B(O)O)c(F)c3)c(C3CC3)cc12: t
CNC(=O)c1c(-c2ccc(F)cc2)oc2cc(-n3ncnc3-c3ccc(B(O)O)c(F)c3)c(C3CC3)cc12: t
CNC(=O)c1c(-c2ccc(F)cc2)oc2cc(N(Cc3ccc(B(O)O)c(F)c3)S(C)(=O)=O)c(C3CC3)cc12: t
CNC(=O)c1c(-c2ccc(F)cc2)oc2cc(N(c3ccc(B(O)O)c(Cl)c3)S(C)(=O)=O)c(C3CC3)cc12: t

----------
This section presents compounds with their documented IC50 values.
Target: Cytochrome P450 2C9 (Homo sapiens, UniProt P11712)
Sequence (P11712 whole entry): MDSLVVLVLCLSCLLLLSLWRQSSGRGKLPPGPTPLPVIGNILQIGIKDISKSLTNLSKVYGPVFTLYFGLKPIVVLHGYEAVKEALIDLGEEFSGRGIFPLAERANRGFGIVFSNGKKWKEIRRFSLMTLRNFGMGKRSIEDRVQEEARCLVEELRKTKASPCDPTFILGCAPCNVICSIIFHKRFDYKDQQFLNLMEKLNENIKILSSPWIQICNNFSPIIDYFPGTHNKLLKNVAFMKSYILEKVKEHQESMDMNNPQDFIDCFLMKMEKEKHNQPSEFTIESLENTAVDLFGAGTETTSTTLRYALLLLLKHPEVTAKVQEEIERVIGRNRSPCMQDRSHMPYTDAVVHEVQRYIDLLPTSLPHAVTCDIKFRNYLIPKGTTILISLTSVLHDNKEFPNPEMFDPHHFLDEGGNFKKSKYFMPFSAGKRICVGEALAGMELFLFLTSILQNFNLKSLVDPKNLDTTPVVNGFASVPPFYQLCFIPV
Assay: Inhibition of CYP2C9 in human liver microsomes using diclofenac as substrate preincubated for 10 mins followed by NADPH addition and measured by LC-MS/MS analysis
Assay type: ADME
experimental readout: IC50

CNC(=O)c1c(-c2ccc(F)cc2)oc2cc(N(Cc3ccc(B(O)O)c(F)c3)S(C)(=O)=O)c(C3CC3)cc12: 4900 nM
CNC(=O)c1c(-c2ccc(F)cc2)oc2cc(N(c3cc(Cl)c4c(c3)COB4O)S(C)(=O)=O)c(C3CC3)cc12: 22000 nM
CNC(=O)c1c(-c2ccc(F)cc2)oc2cc(-n3ncnc3-c3ccc(B(O)O)c(F)c3)c(C3CC3)cc12: 2700 nM
CNC(=O)c1c(-c2ccc(F)cc2)oc2cc(-n3nccc3-c3ccc(B(O)O)c(F)c3)c(C3CC3)cc12: 1500 nM
CNC(=O)c1c(-c2ccc(F)cc2)oc2cc(N(c3ccc(B(O)O)c(Cl)c3)S(C)(=O)=O)c(C3CC3)cc12: 2600 nM

----------
This section presents molecules with their documented clearance values.
Assay: Clearance in rat at 1 mg/kg, iv by LC-MS/MS analysis
Assay type: ADME, organism-based
Details: in vivo
experimental readout: clearance (L/h/kg)

CNC(=O)c1c(-c2ccc(F)cc2)oc2cc(-n3ncnc3-c3ccc(B(O)O)c(F)c3)c(C3CC3)cc12: 0.27
CNC(=O)c1c(-c2ccc(F)cc2)oc2cc(N(Cc3ccc(B(O)O)cc3C(F)(F)F)S(C)(=O)=O)c(C3CC3)cc12: 0.21
CNC(=O)c1c(-c2ccc(F)cc2)oc2cc(-n3nccc3-c3ccc(B(O)O)c(F)c3)c(C3CC3)cc12: 0.324
CNC(=O)c1c(-c2ccc(F)cc2)oc2cc(N(Cc3ccc(B(O)O)c(F)c3)S(C)(=O)=O)c(C3CC3)cc12: 1.74
CNC(=O)c1c(-c2ccc(F)cc2)oc2cc(N(C3CCc4c(B(O)O)cccc43)S(C)(=O)=O)c(C3CC3)cc12 (configuration not stated): 4.14
CNC(=O)c1c(-c2ccc(F)cc2)oc2cc(N(c3ccc(B(O)O)c(Cl)c3)S(C)(=O)=O)c(C3CC3)cc12: 0.306
CNC(=O)c1c(-c2ccc(F)cc2)oc2cc(N3C(=O)OC[C@@H]3c3ccc(B(O)O)c(F)c3)c(C3CC3)cc12: 1.32
